system: B. subtilis 168; test: Bliss interaction score (quartile over a dose matrix) (fitness difference); higher = more antagonism (negative = synergy);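 note: first quartile when negative (synergy) and third quartile when positive (antagonism)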

MOLECULE | Bliss interaction score
Cn1c2cccc(=O)c-2nc2ccccc21 [Pyocyanin] + CC1=C\[C@@H](O)CC(=O)Cc2nc(co2)C(=O)N2CCC=C2C(=O)O[C@H](C(C)C)[C@H](C)/C=C/C(=O)NC\C=C\1 [Virginiamycin M1] | -0.0635
CC[C@H]1OC(=O)[C@H](C)[C@@H](O[C@H]2C[C@@](C)(OC)[C@@H](O)[C@H](C)O2)[C@H](C)[C@@H](O[C@@H]2O[C@H](C)C[C@H](N(C)C)[C@H]2O)[C@](C)(O)C[C@@H](C)CN(C)[C@H](C)[C@@H](O)[C@]1(C)O [Azithromycin] + C[C@@H]1O[C@@H]1P(=O)(O)O [Fosfomycin] | 0.0745
CC1=C(C(=O)O)N2C(=O)[C@@H](NC(=O)[C@H](N)c3ccccc3)[C@H]2SC1 [Cephalexin] + COc1c(N2C[C@@H]3CCCN[C@@H]3C2)c(F)cc2c(=O)c(C(=O)O)cn(C3CC3)c12 [Moxifloxacin] | 0.0149
O=C(O)[C@H]1/C(=C/CO)O[C@@H]2CC(=O)N21 [Clavulanic] + C[C@@H](O)[C@H]1C(=O)N2C(C(=O)O)=C(SCCNC=N)C[C@H]12 [Imipenem] | 0.108
